- Target Entity: binding partner of C5A (XPA23)
- Protocol Description: Biacore K-off

Binder	Measurement Unit	fold difference in affinity vs original
C5A (XPA23) VL S53P (antibody, V domains shown) VH: EVQLLESGGGLVQPGGSLRLSCAASGFTFSKYFMFWVRQAPGKGLEWVSVISPSGGMTRYADSVKGRFTISRDNSKNTLYLQMNSLRAEDTAVYYCARVGYGGNSDYWGQGTLVTVSS VL: DIQMTQSPSSVSASVGDRLTIICRASQDINRWLAWYQQTPGNAPKLLIHSATPLQSGVPSRFSGSGSGTDFTLTINSLQPEDFATYYCQQADSFPLTFGGGTKVEIK	fold	4.92
C5A (XPA23) VL H49D (antibody, V domains shown) VH: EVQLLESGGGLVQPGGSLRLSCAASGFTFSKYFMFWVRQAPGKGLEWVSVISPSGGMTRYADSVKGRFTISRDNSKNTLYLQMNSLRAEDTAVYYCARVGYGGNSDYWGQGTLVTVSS VL: DIQMTQSPSSVSASVGDRLTIICRASQDINRWLAWYQQTPGNAPKLLIDSATSLQSGVPSRFSGSGSGTDFTLTINSLQPEDFATYYCQQADSFPLTFGGGTKVEIK	fold	0.11
C5A (XPA23) VL S93K (antibody, V domains shown) VH: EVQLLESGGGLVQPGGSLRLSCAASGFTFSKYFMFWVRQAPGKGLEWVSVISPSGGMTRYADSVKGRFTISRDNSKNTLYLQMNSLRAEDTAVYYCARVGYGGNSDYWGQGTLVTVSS VL: DIQMTQSPSSVSASVGDRLTIICRASQDINRWLAWYQQTPGNAPKLLIHSATSLQSGVPSRFSGSGSGTDFTLTINSLQPEDFATYYCQQADKFPLTFGGGTKVEIK	fold	0.86
C5A (XPA23) VL R31V (antibody, V domains shown) VH: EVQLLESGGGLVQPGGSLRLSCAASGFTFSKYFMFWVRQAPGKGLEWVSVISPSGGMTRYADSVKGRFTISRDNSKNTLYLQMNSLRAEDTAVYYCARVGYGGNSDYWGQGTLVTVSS VL: DIQMTQSPSSVSASVGDRLTIICRASQDINVWLAWYQQTPGNAPKLLIHSATSLQSGVPSRFSGSGSGTDFTLTINSLQPEDFATYYCQQADSFPLTFGGGTKVEIK	fold	0.44
C5A (XPA23) VL P95A (antibody, V domains shown) VH: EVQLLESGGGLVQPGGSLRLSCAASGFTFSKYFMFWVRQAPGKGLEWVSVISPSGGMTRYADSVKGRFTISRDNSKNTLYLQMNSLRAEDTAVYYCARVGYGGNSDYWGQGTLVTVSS VL: DIQMTQSPSSVSASVGDRLTIICRASQDINRWLAWYQQTPGNAPKLLIHSATSLQSGVPSRFSGSGSGTDFTLTINSLQPEDFATYYCQQADSFALTFGGGTKVEIK	fold	3.83
C5A (XPA23) VL S53G (antibody, V domains shown) VH: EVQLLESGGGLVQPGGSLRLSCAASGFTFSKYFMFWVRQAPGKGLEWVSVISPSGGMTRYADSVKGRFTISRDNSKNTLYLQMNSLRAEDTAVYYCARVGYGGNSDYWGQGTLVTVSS VL: DIQMTQSPSSVSASVGDRLTIICRASQDINRWLAWYQQTPGNAPKLLIHSATGLQSGVPSRFSGSGSGTDFTLTINSLQPEDFATYYCQQADSFPLTFGGGTKVEIK	fold	1.03
C5A (XPA23) VH F33V (antibody, V domains shown) VH: EVQLLESGGGLVQPGGSLRLSCAASGFTFSKYVMFWVRQAPGKGLEWVSVISPSGGMTRYADSVKGRFTISRDNSKNTLYLQMNSLRAEDTAVYYCARVGYGGNSDYWGQGTLVTVSS VL: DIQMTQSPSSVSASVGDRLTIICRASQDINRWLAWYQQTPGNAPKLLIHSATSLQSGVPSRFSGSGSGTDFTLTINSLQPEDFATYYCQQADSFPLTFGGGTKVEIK	fold	0.76
C5A (XPA23) VL D92E (antibody, V domains shown) VH: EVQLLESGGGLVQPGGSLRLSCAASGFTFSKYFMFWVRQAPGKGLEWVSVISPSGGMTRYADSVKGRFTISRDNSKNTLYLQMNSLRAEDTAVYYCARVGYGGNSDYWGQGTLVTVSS VL: DIQMTQSPSSVSASVGDRLTIICRASQDINRWLAWYQQTPGNAPKLLIHSATSLQSGVPSRFSGSGSGTDFTLTINSLQPEDFATYYCQQAESFPLTFGGGTKVEIK	fold	0.99
C5A (XPA23) VL S53L (antibody, V domains shown) VH: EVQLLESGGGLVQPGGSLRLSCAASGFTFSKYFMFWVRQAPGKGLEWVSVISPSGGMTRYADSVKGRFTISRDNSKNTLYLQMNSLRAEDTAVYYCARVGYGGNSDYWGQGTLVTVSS VL: DIQMTQSPSSVSASVGDRLTIICRASQDINRWLAWYQQTPGNAPKLLIHSATLLQSGVPSRFSGSGSGTDFTLTINSLQPEDFATYYCQQADSFPLTFGGGTKVEIK	fold	0.99
C5A (XPA23) VH S30A (antibody, V domains shown) VH: EVQLLESGGGLVQPGGSLRLSCAASGFTFAKYFMFWVRQAPGKGLEWVSVISPSGGMTRYADSVKGRFTISRDNSKNTLYLQMNSLRAEDTAVYYCARVGYGGNSDYWGQGTLVTVSS VL: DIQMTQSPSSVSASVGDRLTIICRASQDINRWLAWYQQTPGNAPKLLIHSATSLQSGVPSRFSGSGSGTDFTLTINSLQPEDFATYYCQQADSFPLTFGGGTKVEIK	fold	0.77
